Provenance of the data: ChEMBL document CHEMBL1201862

A collection of compounds and their measured GI50
Tested on: UACC-257
Assay: NCI tumour cell line growth inhibition, 48 h
Activity calls are given as the source filed them. Rule as the data show it: active = GI50 up to about 1.1 µM and inactive = higher.
Quantity Name: GI50

>>> df
                         chemical_structure  quantity_name           measurement
0                     N#Cc1nc(-c2cccs2)oc1N           GI50   > 100 µM (inactive)
1  O=c1c2cc(S(=O)(=O)Nc3c(Cl)cccc3Cl)ccc2ncn1NS(=O)(=O)c1ccc2ccccc2c1           GI50  > 62.5 µM (inactive)
2  COc1ccccc1/C=N/Nc1nnc2c3ccccc3c3ncccc3c2n1           GI50   > 100 µM (inactive)
3  O=C1C=C2CC[C@H]3[C@@H]4CC[C@H](OC(=O)c5cccc6cc7ccccc7nc56)[C@H]4CC[C@@H]3[C@H]2CC1           GI50   > 100 µM (inactive)
4  N#Cc1c(N2CCN(c3ccc([N+](=O)[O-])cc3)CC2)[n+]([O-])c2ccccc2[n+]1[O-]           GI50   > 100 µM (inactive)
